// data source = ChEMBL document CHEMBL1155921

Test system: B16
Test: Antitumor activity in mouse B16 cell xenografted mouse at 20 mg/kg/day, ip after 4 days
Assay type: functional
Details: 96 h, route intraperitoneal
property_name: inhibition in vivo at 20 mg/kg/day
Reply with the number, then its unit.

compound=C=C1C(=O)[C@]23[C@H](OC(=O)CNC(=O)/C=C/C(=O)O)[C@@H]1CC[C@H]2[C@@]12CO[C@]3(O)[C@@H](O)[C@@H]1C(C)(C)CC[C@@H]2OC(C)=O endpoint_value=69.9%
compound="C=C1C(=O)[C@]23[C@H](OC(=O)C(Cc4ccccc4)NC(=O)CCC(=O)O)[C@@H]1CC[C@H]2[C@@]12CO[C@]3(O)[C@@H](O)[C@@H]1C(C)(C)CCC2=O (some centres undefined)" endpoint_value=56.6%
compound="C=C1C(=O)[C@]23[C@H](O)[C@H]1CC[C@H]2[C@@]12CO[C@]3(O)[C@@H](O)[C@@H]1C(C)(C)CC[C@@H]2O [ORIDONIN]" endpoint_value=45.9%

Field: next compound
Recorded result, C=C1C(=O)[C@]23[C@H](OC(=O)C(Cc4ccccc4)NC(=O)/C=C/C(=O)O)[C@@H]1CC[C@H]2[C@@]12CO[C@]3(O)[C@@H](O)[C@@H]1C(C)(C)CCC2=O (some centres undefined) , inhibition in vivo at 20 mg/kg/day: 61.2%

----------
Test system: HL-60
Experiment: Cytotoxicity against human HL60 cells by MTT assay
Format: functional, cell-based
In this section we review reported pIC50 values for a set of compounds.
Expect pIC50 as a plain number equal to -log10 of the molar concentration.

compound=C=C1C(=O)[C@]23[C@H](OC(=O)CNC(=O)/C=C/C(=O)O)[C@@H]1CC[C@H]2[C@@]12CO[C@]3(O)[C@@H](O)[C@@H]1C(C)(C)CC[C@@H]2OS(=O)(=O)CCC test_target=HL-60 property_name=pIC50 endpoint_value=5.71
compound="C=C1C(=O)[C@]23[C@H](OC(=O)C(Cc4ccccc4)NC(=O)CCCCC(=O)O)[C@@H]1CC[C@H]2[C@@]12CO[C@]3(O)[C@@H](O)[C@@H]1C(C)(C)CCC2=O (stereo partly drawn)" test_target=HL-60 property_name=pIC50 endpoint_value=5.20
compound=O=c1[nH]cc(F)c(=O)[nH]1 test_target=HL-60 property_name=pIC50 endpoint_value=4.67
compound=C=C1C(=O)[C@]23[C@H](OC(=O)CNC(=O)CCCCC(=O)O)[C@@H]1CC[C@H]2[C@@]12CO[C@]3(O)[C@@H](O)[C@@H]1C(C)(C)CC[C@@H]2OS(=O)(=O)CCC test_target=HL-60 property_name=pIC50 endpoint_value=5.02
compound=C=C1C(=O)[C@]23[C@H](OC(=O)CNC(=O)CCCCC(=O)O)[C@@H]1CC[C@H]2[C@@]12CO[C@]3(O)[C@@H](O)[C@@H]1C(C)(C)CC[C@@H]2OC(C)=O test_target=HL-60 property_name=pIC50 endpoint_value=5.28

Recorded result, `C=C1C(=O)[C@]23[C@H](O)[C@H]1CC[C@H]2[C@@]12CO[C@]3(O)[C@@H](O)[C@@H]1C(C)(C)CC[C@@H]2O` , pIC50: 4.48

Recorded result, `C=C1C(=O)[C@]23[C@H](OC(=O)CNC(=O)CCCCC(=O)O)[C@@H]1CC[C@H]2[C@@]12CO[C@]3(O)[C@@H](O)[C@@H]1C(C)(C)CCC2=O` , pIC50: 5.06

Recorded result, C=C1C(=O)[C@]23[C@H](OC(=O)C(N)Cc4ccccc4)[C@@H]1CC[C@H]2[C@@]12CO[C@]3(O)[C@@H](O)[C@@H]1C(C)(C)CCC2=O (stereo partly drawn) , pIC50: 4.56
